test: aqueous solubility (pH 7.4); assay type: physicochemical; conditions: pH 7.4
Could you please classify the records by Aqueous Solubility (pH 7.4) using these ranges: Low: < 4 μM; Medium: ≥ 4 μM and < 20 μM; High: ≥ 20 μM

| MOLECULE | LABEL |
| --- | --- |
| O=C1CCc2c1ccc1c2c2cc(Br)ccc2n1CCCF [PLA1199] | Low |
| CC(=O)c1ccc2c(c1)c1c3c(ccc1n2CCCF)C(=O)CC3 [PLA1198] | Low |
| CN1Cc2c(ccc3c2c2ccccc2n3CCC(F)F)C1=O [PLA1194] | Medium |

Ask: The entry to classify is NC(=O)c1cccc2c1c1c3cc[nH]c(=O)c3ccc1n2CCCF [PLA1196] ; which class holds it?
Result: High

Ask: The entry to classify is O=c1c2ccc3c(c2ccn1CCO)c1ccccc1n3CCCF [PLA1192] ; which class holds it?
Result: Medium

Ask: The entry to classify is N#Cc1cccc2c1c1c3cc[nH]c(=O)c3ccc1n2CCCF [PLA1195] ; which class holds it?
Result: Low

Ask: The entry to classify is CC(=O)c1ccc2c(c1)c1c(C(N)=O)cccc1n2CCCF [PLA1191] ; which class holds it?
Result: High

Ask: The entry to classify is O=c1[nH]c2ccc3c(c4ccccc4n3CCCF)c2o1 [PLA1190] ; which class holds it?
Result: Low

Ask: The entry to classify is O=c1c2ccc3c(c2ccn1CCN1CCCC1)c1ccccc1n3CCCF [PLA1193] ; which class holds it?
Result: High
